Measured log10 of IC50 by item
Target: PHF (paired helical filaments) isolated from the brain of an Alzheimer's disease patient (Homo sapiens)
Experiment: Competitive binding assay: displacement of primulin fluorescence from PHFs
Conditions: concentration that reduces the signal of 1 μM primulin to 50% of control; relative affinity; read-out: P50
Experimental: The DSB compounds were tested for their ability to bind to PHF in a competition-style assay. If a test compound that also binds to PHFs with the same or greater affinity is added, it will displace the reference ligand and reduce the fluorescence signal. […] The assay for ligand activity was performed in 96 well plates (Nunc Cat. No. 236108). […] The concentration of PHFs added was determined for each preparation to give an adequate fluorescence signal, and was typically in the range 1-2 μl/100 μl. […]
assay metric: log10 of IC50 (log10 of the value in nM)

molecule: COc1ccc2nc(-c3ccc(NC(=O)c4cccc(N)c4)cc3)sc2c1 [ABMA-05]
reading: 2.93
//
molecule: Cc1ccc2nc(-c3ccc(NC(=O)c4ccc(N(C)C)c(F)c4)cc3)cn2c1 [AIPN-22]
reading: 2.88
//
molecule: O=C(Nc1ccc(-c2nc3ccc(O)cc3s2)cc1)c1ccc(OCCCC(F)(F)F)cc1 [ABFHA-05]
reading: 2.60
//
molecule: COc1ccc2nc(-c3ccc(/C=C/c4ccc([N+](=O)[O-])cc4)cc3)sc2c1 [BEMOA-03]
reading: 1.60
//
molecule: Cc1ccc2nc(-c3ccc(NC(=O)c4ccc(N(C)C)cc4)cc3)cn2c1 [AIPN-02]
reading: 2.49
//
molecule: O=C(Nc1ccc(-c2nc3ccc(O)cc3s2)c(O)c1)c1cc(OC(F)(F)F)ccc1O [ABFHA-06]
reading: 2.59
//
molecule: Oc1ccc(/N=N/c2ccc(-c3nc4ccc(O)cc4s3)cc2)c(C(F)(F)F)c1 [BDF-04]
reading: 1.90
//
molecule: COc1ccc2nc(-c3ccc(/N=N/c4ccc(O)cc4C(F)(F)F)cc3)sc2c1 [BDF-03]
reading: 2.11
//
molecule: COc1ccc2sc(-c3ccc(/N=N/c4ccc(C(F)(F)F)cc4O)cc3)nc2c1 [BDF-10]
reading: 2.94
//
molecule: O=C(Nc1ccc(-c2nc3ccc(O)cc3s2)cc1)c1ccc(OCC(F)(F)F)cc1 [ABFHA-03]
reading: 2.00
//
molecule: CN(C)CCOc1ccc2nc(-c3ccc(NC(=O)c4ccc([N+](=O)[O-])c(C(F)(F)F)c4)cc3)sc2c1 [ABDMAA-01]
reading: 2.99
//
molecule: CNc1ccc(C(=O)Nc2ccc(-c3cn4cc(C)ccc4n3)cc2)cc1 [AIPN-12]
reading: 2.52
//
molecule: O=C(Nc1ccc(-c2nc3ccc(O)cc3s2)cc1)c1ccc(F)c([N+](=O)[O-])c1 [ABFHA-11]
reading: 2.49
//
molecule: Cc1ccc2nc(-c3ccc(NC(=O)c4ccc(O)cc4F)cc3)cn2c1 [AIPN-29]
reading: 2.85
//
molecule: COc1ccc(C(=O)Nc2ccc(-c3cn4cc(C)ccc4n3)cc2)cc1F [AIPN-23]
reading: 2.98
//
molecule: COc1ccc2nc(-c3ccc(NC(=O)c4ccc(N)c(C(F)(F)F)c4)cc3)sc2c1 [ABFMA-15]
reading: 2.63

###

biological target: PHF (paired helical filaments) isolated from the brain of an Alzheimer's disease patient (Homo sapiens, UniProt P10636); experiment: Competitive binding assay: displacement of primulin fluorescence from PHFs; details: concentration that reduces the signal of 1 μM primulin to 50% of control; relative affinity; read-out: P50
Sequence (P10636 623-708 limits assumed): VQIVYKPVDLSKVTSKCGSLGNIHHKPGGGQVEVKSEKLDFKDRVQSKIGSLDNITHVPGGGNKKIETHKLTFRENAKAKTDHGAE
pIC50: −log10 of the molar value.
assay metric: pIC50

query smiles: COc1ccc2nc(-c3ccc(NC(=O)c4cccc(N(C)C)c4)cc3)sc2c1
assay metric: pIC50
reading: ~5.92
--
query smiles: Cc1ccc2nc(-c3ccc(NC(=O)c4cc(F)c(N(C)C)c(F)c4)cc3)cn2c1
assay metric: pIC50
reading: < 6.00
--
query smiles: COc1ccc2nc(-c3ccc(NC(=O)c4ccc(Br)c([N+](=O)[O-])c4)cc3)sc2c1
assay metric: pIC50
reading: < 6.00
--
query smiles: Cc1ccc2nc(-c3ccc(NC(=O)c4ccc(Cl)nc4)cc3)cn2c1
assay metric: pIC50
reading: < 6.00
